The binders listed here are annotated with their hCD71:HSA.
Target: T1, recombinant biotinylated CD71 extracellular domain (Sino Biologics) with an N-terminal 6His tag (human, UniProt P02786 89-760, biotinylated (sites not given))
T1 construct: extracellular domain; also called hCD71; huCD71
T1 sequence (P02786 other isoform, or with tags, fused parts or gaps): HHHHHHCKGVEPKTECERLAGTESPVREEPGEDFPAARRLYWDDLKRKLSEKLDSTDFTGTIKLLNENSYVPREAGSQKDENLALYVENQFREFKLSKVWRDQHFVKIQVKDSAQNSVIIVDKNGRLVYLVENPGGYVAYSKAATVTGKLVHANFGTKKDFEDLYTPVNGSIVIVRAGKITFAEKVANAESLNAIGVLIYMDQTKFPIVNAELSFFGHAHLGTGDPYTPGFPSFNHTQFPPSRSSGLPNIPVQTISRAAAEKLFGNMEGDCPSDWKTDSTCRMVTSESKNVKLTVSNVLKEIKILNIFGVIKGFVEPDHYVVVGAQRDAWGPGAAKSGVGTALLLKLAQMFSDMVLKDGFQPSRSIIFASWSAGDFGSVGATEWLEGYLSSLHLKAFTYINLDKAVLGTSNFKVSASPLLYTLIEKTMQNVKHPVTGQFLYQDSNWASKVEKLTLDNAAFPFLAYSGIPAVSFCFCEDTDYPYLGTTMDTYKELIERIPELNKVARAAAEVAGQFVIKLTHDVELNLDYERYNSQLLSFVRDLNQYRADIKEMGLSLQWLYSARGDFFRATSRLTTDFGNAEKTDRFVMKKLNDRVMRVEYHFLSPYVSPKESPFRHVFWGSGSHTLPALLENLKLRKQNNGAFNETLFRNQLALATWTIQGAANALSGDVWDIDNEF
Assay: screening ELISA, ratio
No unit in the answer, only the number.

Look over these answered cases.
SEQ ID NO 134 (designed binder, FN3 domain) MLPAPKNLVVSRVTEDSARLSWTAPDAAFDSFWIDYYERKYVGEAIVLTVPGSERSYDLTGLKPGTEYEVTIYGVKGGWYSDPLSAIFTT    1580
SEQ ID NO 291 (designed binder, FN3 domain) MLPAPKNLVVSRVTEDSARLSWTAPDAAFDSFHIEYEEPETEGEAIYLHVPGSERSYDLTGLKPGTEYKVLIRGVKGGSYSIPLQAPFTT    1780
SEQ ID NO 246 (designed binder, FN3 domain) MLPAPKNLVVSRVTEDSARLSWTAPDAAFDSFTIAYNEQNHYGEAIVLTVPGSERSYDLTGLKPGTEYGVWIEGVKGGTLSWPLSAIFTT    1120

Now turn to the next binder.
For the binder SEQ ID NO 120 (designed binder, FN3 domain) MLPAPKNLVVSRVTEDSARLSWTAPDAAFDSFRIEYIEWWVGGEAIVLTVPGSERSYDLTGLKPGTEYWVDIKGVKGGKRSYPLSAIFTT , what hCD71:HSA is on record?
1970
